Target system: Cyclin-dependent kinase 2 (Homo sapiens) (UniProt P24941)
Experimental conditions: Compound concentration 20.0 uM, Protein concentration 2.0 uM, Result type QC Liability
Description: Thermal Shift Assay. Domain: start/stop: M1-L298
Criterion: ΔTm strictly less than -0.03 °C. Met: criterion met. Not met: criterion not met.

Compound	Class name
CC(C)N1CCN(Cc2cnc(-c3cc(-c4cccc5[nH]ccc45)cc4[nH]ncc34)o2)CC1	criterion not met
COc1cc(-c2cncc(-c3cnn(C4CCNCC4)c3)c2)cc(OC)c1OC	criterion not met
CC(C)(C)OC(=O)CN1C(=O)c2c(OCC(=O)O)cccc2Oc2ccc(C(F)(F)F)cc21	criterion not met
CNC(=O)c1ccc(C)c(-n2c(C)cc(OCc3ccc(F)cc3F)c(Br)c2=O)c1	criterion met

Quick check: ΔTm of CCC(C(=O)Nc1ccc(-c2cc3ccccc3s2)c(C(N)=O)c1)c1nccs1 (centres undefined) under -0.03 °C?
criterion not met

Lookup O=C(O)c1cccc(C2=C(c3cc(Cl)ccc3OCc3ccc(F)cc3F)CCC2)n1
criterion met

Also COc1cc(F)ccc1-c1ncnc(Nc2cccc(C[S@](C)(=N)=O)c2)n1 ?
criterion not met

Also, COC1(C#Cc2ccc(Cl)c(-c3ncc4c(n3)-c3sc(NC(C)=O)nc3CC4)c2)CCN(C)CC1 please.
criterion met

---

So I've got a bunch of compounds here, and I need their ΔTm values.
Target system: Aurora kinase A (Homo sapiens) (UniProt O14965)
Sequence (O14965 whole entry): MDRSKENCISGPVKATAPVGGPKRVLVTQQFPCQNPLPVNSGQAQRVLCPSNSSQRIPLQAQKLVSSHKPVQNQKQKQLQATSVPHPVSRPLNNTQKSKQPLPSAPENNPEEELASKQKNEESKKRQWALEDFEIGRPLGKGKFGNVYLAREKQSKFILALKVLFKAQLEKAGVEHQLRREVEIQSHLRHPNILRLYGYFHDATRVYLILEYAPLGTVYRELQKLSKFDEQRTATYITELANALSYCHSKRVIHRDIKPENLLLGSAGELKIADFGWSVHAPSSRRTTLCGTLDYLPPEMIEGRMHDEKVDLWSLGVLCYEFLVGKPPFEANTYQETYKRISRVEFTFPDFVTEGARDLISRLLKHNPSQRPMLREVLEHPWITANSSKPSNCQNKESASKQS
Experimental conditions: Compound concentration 20.0 uM, Protein concentration 2.0 uM, Result type QC Liability
Description: Thermal Shift Assay. Domain: start/stop: E122-S403
One number for each entry, in °C.

Below are worked cases with known answers.
CN(C)C/C=C/C(=O)Nc1ccc(C(=O)Nc2cccc(Nc3ncc(Cl)c(-c4c[nH]c5ccccc45)n3)c2)cc1 10.2
COc1cc2nc(C)nc(N[C@H](C)c3cc(N)cc(C(F)(F)F)c3)c2cc1O[C@H]1CCOC1 0.75
CCn1c(-c2nonc2N)nc2cncc(C(=O)N3CC[C@H](N)C3)c21 0.77

I'm hoping you can list ΔTm for every compound here, please.
1. Cn1cc(C(=O)O)c2ccc(N3CCC(OCc4c(-c5c(Cl)cccc5Cl)noc4C4CC4)CC3)cc21
2. Nc1nccc(-c2c(-c3ccc(F)cc3)ncn2C2CCN(Cc3ccon3)CC2)n1

1. -1.5
2. -0.88

---

Kindly supply the reported ΔTm values for the records listed here.
Target system: Casein kinase I isoform delta (Homo sapiens) (UniProt P48730)
Sequence (P48730 whole entry, looked up, canonical isoform): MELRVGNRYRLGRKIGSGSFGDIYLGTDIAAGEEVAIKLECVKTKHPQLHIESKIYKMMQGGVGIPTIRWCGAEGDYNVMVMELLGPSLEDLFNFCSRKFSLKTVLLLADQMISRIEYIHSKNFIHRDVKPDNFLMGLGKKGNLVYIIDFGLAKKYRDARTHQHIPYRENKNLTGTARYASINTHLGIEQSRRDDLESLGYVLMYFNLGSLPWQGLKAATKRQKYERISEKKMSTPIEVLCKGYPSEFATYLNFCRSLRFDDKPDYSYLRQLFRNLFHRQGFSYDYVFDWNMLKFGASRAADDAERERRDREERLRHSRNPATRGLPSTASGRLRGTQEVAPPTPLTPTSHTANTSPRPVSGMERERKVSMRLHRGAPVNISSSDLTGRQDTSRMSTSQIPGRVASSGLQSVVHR
Experimental conditions: Compound concentration 20.0 uM, Protein concentration 2.0 uM, Result type QC Liability
Description: Thermal Shift Assay. Domain: start/stop: M1-K294
Please don't drop the unit; write it after the number.

Known results for molecules:
Molecule	Target system	ΔTm
O=C(N[C@H](Cc1ccccc1)C(=O)O)c1cccc(OCc2cccnc2)c1	Casein kinase I isoform delta (Homo sapiens) (UniProt P48730)	-0.02 °C
Fc1ccc(-c2nc(-c3ccc4ccccc4c3F)[nH]c2-c2ccncc2)cc1	Casein kinase I isoform delta (Homo sapiens) (UniProt P48730)	4.6 °C
CC(C)(O)c1cn(-c2ccc(-c3cccc(S(C)(=O)=O)c3)cc2)c(C(C)(C)c2ccccc2Cl)n1	Casein kinase I isoform delta (Homo sapiens) (UniProt P48730)	-0.27 °C
COc1ccc(-c2csc(NC(=O)[C@H]3CCCCN3S(=O)(=O)c3ccc(C)cc3)n2)cc1	Casein kinase I isoform delta (Homo sapiens) (UniProt P48730)	2.05 °C
c1ccc(C(OC2CCN(CCCc3nnn[nH]3)CC2)c2ccccc2)cc1	Casein kinase I isoform delta (Homo sapiens) (UniProt P48730)	-0.14 °C
COc1cc(C(=O)NCCOCCOCCOCCC(=O)Nc2cccc3c2C(=O)N(C2CCC(=O)NC2=O)C3=O)ccc1Nc1ncc(C(F)(F)F)c(Oc2cccc3c2C(=O)CC3)n1 (configuration not stated)	Casein kinase I isoform delta (Homo sapiens) (UniProt P48730)	-2.13 °C
O=C(NC[C@@H]1[C@H]2CN(C(=O)OCc3cc(C(F)(F)F)cc(C(F)(F)F)c3)C[C@@H]12)c1ccc2[nH]nnc2c1	Casein kinase I isoform delta (Homo sapiens) (UniProt P48730)	0.69 °C
CC(C)S(=O)(=O)c1ccccc1Nc1nc(N[C@@H]2CCCN(CCCCCCCNC(=O)COc3cccc4c3C(=O)N(C3CCC(=O)N(C)C3=O)C4=O)C2)ncc1Cl (some centres not stated)	Casein kinase I isoform delta (Homo sapiens) (UniProt P48730)	1.07 °C
CC1(C)C[C@@H]1C(=O)N/C(=C\CCCCSC[C@H](N)C(=O)O)C(=O)O	Casein kinase I isoform delta (Homo sapiens) (UniProt P48730)	-0.09 °C
Cn1cc(C(=O)O)c2ccc(N3CCC(OCc4c(-c5c(Cl)cccc5Cl)noc4C4CC4)CC3)cc21	Casein kinase I isoform delta (Homo sapiens) (UniProt P48730)	1.17 °C

State recorded ΔTm for all listed molecules.
1. O=C(Nc1ccnc(NC(=O)C2CC2)c1)c1c(Cl)cccc1Cl
2. NC(=O)c1ccccc1Nc1nc(-c2ccc(N3CCOCC3)cc2)cc2ncccc12
3. CCOCCn1cc(C(=O)Nc2ccc(-n3nc(-c4cccnc4)cc3C(F)(F)F)cn2)ccc1=O
4. CC(=O)c1ccc2c(c1)/C(=C(/Nc1cccc(C#N)c1)c1ccc3c(c1)OCCO3)C(=O)N2
5. N#Cc1ccc(C#CC[C@@H](C#N)NC(=O)[C@@H]2CCCCN2)cc1F
6. Cc1c(NC(=O)c2ccc(C(C)(C)C)cc2)cccc1-c1cn(C)c(=O)c(Nc2ccc(C(=O)N3CCOCC3)cc2)n1
7. CC(C)(C#Cc1ccc(NC(=O)COc2ccccc2C(=O)c2ccccc2)c(Cl)c1)C(=O)O

1. 0.54 °C
2. 3.01 °C
3. 0.33 °C
4. 1.02 °C
5. 0.14 °C
6. 0.35 °C
7. -0.18 °C
